# ASSAYED_SYSTEM: T1, human APJ (transfected HEK293 cells, Gαi1 BRET assay) (human, UniProt P35414 1-380)
# T1 sequence (looked up): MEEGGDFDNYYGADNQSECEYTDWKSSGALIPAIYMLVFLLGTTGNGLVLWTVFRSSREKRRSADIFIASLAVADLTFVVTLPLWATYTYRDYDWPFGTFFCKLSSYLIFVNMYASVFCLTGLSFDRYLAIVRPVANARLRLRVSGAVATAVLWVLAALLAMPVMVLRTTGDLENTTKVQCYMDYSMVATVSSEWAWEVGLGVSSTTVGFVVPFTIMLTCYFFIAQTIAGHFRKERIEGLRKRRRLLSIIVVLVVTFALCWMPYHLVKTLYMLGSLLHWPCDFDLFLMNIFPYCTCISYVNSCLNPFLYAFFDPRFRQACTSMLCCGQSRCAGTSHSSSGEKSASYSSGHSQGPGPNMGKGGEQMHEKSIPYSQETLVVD
# TEST_PROTOCOL: cell-based or functional assay
Numbered stars: 1 amine (or outer) side, 2 acyl side, 3 side chain; on linkers, the order of the positions; unused ones are H or OH. Bridge positions count the residues as written; N and C are the ends. Square brackets hold non-standard residues; d marks the D form. Ends that are not written are not given here. Hyp(OBn) = O-benzyl-4-hydroxyproline, O=C([C@@H]1C[C@@H](OCc2ccccc2)CN1[*:1])[*:2]; Oic = O=C(O)[C@@H]1C[C@@H]2CCCC[C@@H]2N1; Phe(4-Br) = N[C@@H](Cc1ccc(Br)cc1)C(=O)O; hArg = N=C(N)NCCCC[C@H](N)C(=O)O; pGlu = O=C1CC[C@@H](C(=O)O)N1; Nle = CCCC[C@H](N)C(=O)O
EC50 Gail vs 6 nM: less than gives MET; not less than gives NOT MET.

[
  {
    "BINDER": "[pGlu]RRE[Nle]PKHSRVPFP (lactam 4-7) [Compound 75 (ABB01-105)]",
    "CLASS_LABEL": "NOT MET"
  },
  {
    "BINDER": "KRRE[Nle]PLHSRV[Oic]FP (lactam 1-4) [Compound 73 (AM03-66)]",
    "CLASS_LABEL": "NOT MET"
  },
  {
    "BINDER": "[pGlu]R[hArg]SEPLHKRVPFP (lactam 5-9) [Compound 91 (KT03-17)]",
    "CLASS_LABEL": "MET"
  },
  {
    "BINDER": "[pGlu]RRSEPLHKRVP[Phe(4-Br)]P (lactam 5-9) [Compound 92 (KT03-15)]",
    "CLASS_LABEL": "NOT MET"
  },
  {
    "BINDER": "[pGlu]RRSEPLHKRVPF[Hyp(OBn)] (lactam 5-9) [Compound 93 (KT03-19)]",
    "CLASS_LABEL": "NOT MET"
  },
  {
    "BINDER": "KRRE[Nle]PLHSRVPFP (lactam 1-4) [Compound 72 (AM03-37)]",
    "CLASS_LABEL": "MET"
  },
  {
    "BINDER": "[pGlu]RRSEPLHKRV[Oic]FP (lactam 5-9) [Compound 78 (AM03-67)]",
    "CLASS_LABEL": "NOT MET"
  },
  {
    "BINDER": "KRRE[Nle]CLHCRVPFP (lactam 1-4; disulfide 6-9) [Compound 79 (AM03-68)]",
    "CLASS_LABEL": "MET"
  },
  {
    "BINDER": "[pGlu][hArg]RSEPLHKRVPFP (lactam 5-9) [Compound 90 (KT03-16)]",
    "CLASS_LABEL": "NOT MET"
  }
]

// provenance: patent US20240343761A1
